experiment: Concentration dependent inactivation of gGamma-amino-N-butyrate transaminase
pKi: −log10 of the molar value.
reported_endpoint: pKi

>>> print(df.to_string())
                 record_smiles  quantitative_result
0  N[C@@H]1C=CC[C@H](C(=O)O)C1                 2.64
